Please provide measured composite z-score for the entries that follow.
Protocol: small-molecule binders of probe aLefty1, primary screen, biochemical, small-molecule microarray, 635/667 nm fluorescence (AID 1153);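 also: score merges spot fluorescence with signal-to-noise ratio from the scanned slide images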
Experimental Setup: higher = more signal
Answers are plain numbers.

Examples from the recorded data:
Compound: C=CCOC(=O)[C@@H]1[C@H]2C(=O)O[C@H](c3ccccc3)[C@H](c3ccccc3)N2[C@H](c2ccc(OCCOC(=O)[C@@H]3C[C@@H]4C(=O)N5CCC[C@H]5C(=O)N4[C@@H]3c3ccc(O)cc3)cc2)[C@@]12C(=O)Nc1ccc(I)cc12
composite z-score: 0.365

Compound: CCOC1=C2C(CN(S(=O)(=O)c3ccc(C)cc3)C2c2ccc(C)cc2)C2C(=O)N(c3ccccc3)C(=O)C2C1 (stereo unspecified)
composite z-score: 0.0839

Compound: COCCOC(=O)N1C(=O)[C@@]2(c3cc(C#CC4=CCCCC4)ccc31)[C@H](C(N)=O)[C@H]1C(=O)O[C@H](c3ccccc3)[C@H](c3ccccc3)N1[C@@H]2c1ccc(OCCO)cc1
composite z-score: -0.273

Compound: O=C1OCC=C[C@H]2OC34C=CCN(CCN5CCOCC5)C(=O)[C@H]3N(CCCO)C(=O)[C@@H]4[C@@H]12 (stereo partly specified)
composite z-score: -0.147

Compound: C#CCN(Cc1ccccc1Br)C(/C=C/c1ccccc1)CO (stereo unspecified)
composite z-score: -0.226

Consider the additional compound presented here.
May I ask what composite z-score has been recorded for `COc1ccc([Si](C)(C)[C@H]2[C@H](CC(=O)N3CCC[C@H]3CO)O[C@@]3(C(=O)N(Cc4cccc(N5C(=O)c6cccc7cccc5c67)c4)c4ccccc43)[C@@H]2C)cc1` ?
0.302

###

Protocol: CREB reporter modulators under forskolin, primary screen, cell-based, PC12, CRE-LacZ reporter, forskolin-stimulated (AID 1146);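 also: PC12 cells with 6xCRE LacZ reporter stimulated by forskolin 10 µM; beta-galactosidase reporter signal reflecting CREB driven transcription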
Experimental Setup: luminescence, 4.5 h, higher = more signal, called active from +8 up or from −8 down
Returns one of Criterion met or Criterion not met; Criterion met when z-score is >= -0.6.

Reported z-score reaches at least -0.6 for `CCCC[C@@H]1C[C@H]1[C@@H](NC(=O)c1ccco1)c1ccc(C(=O)OC)cc1` ?
Criterion met

Reported z-score reaches at least -0.6 for `COCCCNC(=O)[C@@]1(Cc2ccccc2N=[N+]=[N-])N=C(c2ccc(OCCCO)cc2)O[C@H]1c1ccccc1N=[N+]=[N-]` ?
Criterion not met

Reported z-score reaches at least -0.6 for `C=CCNC(=O)[C@H]1[C@@H]2C(=O)O[C@@H](c3ccccc3)[C@@H](c3ccccc3)N2[C@@H](c2ccc(OCCO)cc2)[C@]12C(=O)Nc1ccc(C#CC3=CCCCC3)cc12` ?
Criterion met

###

Please provide measured z-score for the entries that follow.
Protocol: modulators of HCV replicon luciferase signal, primary screen, HCV replication inhibitor project, Huh7 cells, luciferase reporter (AID 1109);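 also: huh7 hepatoma cells harbouring a luciferase neomycin HCV replicon reporter; luciferase luminescence as measure of HCV replicon replication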
Experimental Setup: 48 h, higher = more signal
Give bare numbers.

Examples from the recorded data:
Molecule: COCCOC(=O)N1C(=O)[C@@]2(c3cc(C#CC4=CCCCC4)ccc31)[C@H](C(=O)N1CCc3cc(OC)c(OC)cc3C1)[C@H]1C(=O)O[C@H](c3ccccc3)[C@H](c3ccccc3)N1[C@@H]2c1ccc(OCCO)cc1
Measure: z-score
Test Value: -0.44
//
Molecule: CC(=O)N1Cc2ccccc2C[C@@]2(COC(c3ccc(OCCCO)cc3)=N2)C1=O
Measure: z-score
Test Value: -1.62
//
Molecule: COC(=O)[C@@]1(Cc2ccc(F)cc2)[C@H]2c3cc(C(=O)N(C)C)n(Cc4ccc(S(C)(=O)=O)cc4)c3C[C@H]2CN1C(=O)c1ccccc1
Measure: z-score
Test Value: -0.328
//
Molecule: C=CCNC(=O)[C@@H]1[C@H]2C(=O)O[C@H](c3ccccc3)[C@H](c3ccccc3)N2[C@H](c2ccc(OCCO)cc2)[C@@]12C(=O)Nc1ccc(C#CCCO)cc12
Measure: z-score
Test Value: -1.36
//
Molecule: CN1C(=O)C2C=CC(C(O)Cc3ccccc3)N(Nc3ccccc3)C2C1=O (centres undefined)
Measure: z-score
Test Value: -0.12

Below is a list of molecules. For each, state its recorded z-score.
1. CN(C)C(=O)[C@]1(Cc2ccccc2CN=[N+]=[N-])N=C(c2ccc(OCCCO)cc2)O[C@@H]1c1ccccc1CN=[N+]=[N-]
2. COc1ccc(C#Cc2ccc3c(c2)[C@]2(C(=O)N3)[C@H](c3ccccc3OCCO)N3[C@H](c4ccccc4)[C@H](c4ccccc4)OC(=O)[C@H]3[C@@H]2C(=O)O)cc1
3. COc1cc2c(cc1OC)CN(C(=O)[C@H]1[C@@H]3C(=O)O[C@@H](c4ccccc4)[C@@H](c4ccccc4)N3[C@@H](c3ccc(O)cc3)[C@]13C(=O)Nc1ccc(C#CCNC(N)=O)cc13)CC2
4. C#CCNC(=O)[C@H](Cc1ccccc1)NC(=O)CCC(=O)O
5. CN1C(=O)C2C=CC(C(O)c3cc(C(F)(F)F)cc(C(F)(F)F)c3)N(N3CCCCC3)C2C1=O (centres undefined)

1. -3.12
2. -2.87
3. -0.145
4. -0.25
5. -0.353

###

Tested on: XIP peptide (Xip251-270)
Protocol: small-molecule binders of XIP peptide, primary screen, biochemical, small-molecule microarray, fluorescence 635/667 nm, 0.5 µg/mL protein (AID 1183)
Experimental Setup: small-molecule microarray binding, fluorescence 635 nm; higher = more signal
Returns one of 1 (yes) or 0 (no); 1 (yes) when composite z-score is >= 0.8.

The examples below pair each entry with its known result.
Structure As Smiles: COCCCN1C(=O)[C@@]2(c3ccc([N+](=O)[O-])cc3)CC(=O)N(C3CCCCC3)[C@@H]2c2ccc(CO)cc21
Class Name: 0 (no)
//
Structure As Smiles: COCCOC(=O)N1C(=O)[C@@]2(c3cc(C#CC4=CCCCC4)ccc31)[C@H](C(N)=O)[C@H]1C(=O)O[C@H](c3ccccc3)[C@H](c3ccccc3)N1[C@@H]2c1ccc(OCCO)cc1
Class Name: 0 (no)
//
Structure As Smiles: COc1ccc(CCN2C(=O)[C@@]3(Cc4ccccc42)c2ccccc2C(=O)N(Cc2ccccc2C(F)(F)F)[C@H]3c2ccc(CO)cc2)cc1
Class Name: 0 (no)
//
Structure As Smiles: O=C1O[C@H](c2ccccc2)[C@H](c2ccccc2)N2[C@H]1[C@@H](C(=O)O)[C@]1(C(=O)Nc3ccc(C#CCCO)cc31)[C@H]2c1ccc(O)cc1
Class Name: 1 (yes)

Reported composite z-score reaches at least 0.8 for `C=CCOC(=O)[C@H]1[C@@H]2C(=O)O[C@@H](c3ccccc3)[C@@H](c3ccccc3)N2[C@@H](c2ccc(OCCOC(=O)[C@@H]3C[C@@H]4C(=O)N5CCC[C@H]5C(=O)N4[C@@H]3c3cccc(OCCO)c3)cc2)[C@]12C(=O)Nc1ccccc12` ?
1 (yes)

###

Please provide measured composite z-score for the entries that follow.
Target Or System: Dickkopf-related protein 1 (Homo sapiens) (UniProt O94907)
Sequence (O94907 whole entry, looked up): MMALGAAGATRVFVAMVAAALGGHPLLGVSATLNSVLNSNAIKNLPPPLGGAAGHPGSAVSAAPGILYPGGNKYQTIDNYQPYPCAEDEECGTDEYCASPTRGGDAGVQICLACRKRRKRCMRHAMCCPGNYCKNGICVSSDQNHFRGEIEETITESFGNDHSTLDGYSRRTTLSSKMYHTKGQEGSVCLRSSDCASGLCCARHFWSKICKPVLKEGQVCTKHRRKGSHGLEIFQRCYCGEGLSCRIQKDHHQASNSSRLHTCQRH
Protocol: DKK1 binders on small-molecule microarrays, primary screen, biochemical, small-molecule microarray, 635 nm fluorescence scan (AID 1106);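 also: score merges emission near 667 nm with signal to noise over three replicate slides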
Experimental Setup: DKK1 binding, higher = more signal
Answers are plain numbers.

Examples from the recorded data:
Compound: COc1ccc(NN2C(C(O)c3ccc([N+](=O)[O-])cc3)C=CC3C(=O)N(C4CCCCC4)C(=O)C32)cc1 (stereo unspecified)
composite z-score: -0.281

Compound: COCCOC(=O)N1C(=O)[C@@]2(c3ccccc31)[C@H](c1ccccc1OCCO)N1[C@H](c3ccccc3)[C@H](c3ccccc3)OC(=O)[C@H]1[C@@H]2C(=O)Nc1nc2ccccc2s1
composite z-score: 0.476

Compound: O=C1c2ccccc2[C@@]2(Cc3ccccc3N(CC(F)(F)F)C2=O)[C@H](c2ccc(CO)cc2)N1Cc1ccccc1Cl
composite z-score: 0.558

Below is a list of compounds. For each, state its recorded composite z-score.
1. COc1cc2c(cc1OC)CN(C(=O)[C@@H]1[C@H]3C(=O)O[C@H](c4ccccc4)[C@H](c4ccccc4)N3[C@H](c3ccc(O)cc3)[C@@]13C(=O)Nc1ccc(C#CC4(O)CCCCCC4)cc13)CC2
2. CC(C)c1ccc(NN2C(C(O)C(c3ccccc3)c3ccccc3)C=CC3C(=O)N(c4ccccc4)C(=O)C32)cc1 (stereo unspecified)
3. C=CCNC(=O)[C@H]1[C@@H]2C(=O)O[C@@H](c3ccccc3)[C@@H](c3ccccc3)N2[C@@H](c2ccc(O)cc2)[C@]12C(=O)N(C(=O)OCCOC)c1ccc(C#CCNC(N)=O)cc12

1: 0.474; 2: 0.238; 3: 0.936

###

Protocol: S. cerevisiae RM11-1a growth modifiers, primary screen, strain RM11-1a, OD600, basal, 24 h (AID 1177);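 also: cultures grown under basal conditions with no added stressor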
Experimental Setup: OD600, 24 h, higher = more signal, called active from +8 up or from −8 down
Please provide measured z-score for the entries that follow.
Answers are plain numbers.

Examples from the recorded data:
Compound: C#CCN(CC=C(C)C)[C@H](CO)c1ccccc1
Measure: z-score
Test Value: -0.0386
--
Compound: C#CCN(CC1=CCCCC1)[C@H](c1ccccc1Br)[C@@H](O)Cc1ccccc1
Measure: z-score
Test Value: 0.404
--
Compound: CN1C(=O)C2C=CC(C(O)C3CC=CCC3)N(NC(=O)OC(C)(C)C)C2C1=O (stereo not drawn)
Measure: z-score
Test Value: -0.0874
--
Compound: CCCCC(O)C1C=CC2C(=O)N(c3ccccc3)C(=O)C2N1Nc1ccccc1F (stereo not drawn)
Measure: z-score
Test Value: -0.182
--
Compound: C[N+](C)(C)CCCC[C@@H]1NC(=O)[C@@H]2C[C@H](C(=O)NCCCCCN)[C@H](c3cccc(OCCO)c3)N2C1=O
Measure: z-score
Test Value: 0.527

Below is a list of compounds. For each, state its recorded z-score.
1. COc1ccc(CCNC(=O)[C@@H]2c3ccccc3C(=O)N(C3Cc4ccccc4C3)[C@H]2c2ccc(CO)cc2)cc1
2. COCCCN1C(=O)[C@@]2(Cc3ccccc31)c1ccccc1C(=O)N(Cc1ccccc1C(F)(F)F)[C@H]2c1ccc(CO)cc1
3. COCCOC(=O)N1C(=O)[C@@]2(c3cc(C#CCCO)ccc31)[C@H](c1ccc(OCCO)cc1)N1[C@H](c3ccccc3)[C@H](c3ccccc3)OC(=O)[C@H]1[C@@H]2C(=O)N1CCN(c2ncccn2)CC1

[0.205, -0.305, 1.24]
